Test system: BFTC-905 (Bladder Carcinoma);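 also: after 72 h of two-drug dosing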
ASSAY NAME: Bliss excess, mean over the matrix (fraction); higher = more synergy
EXPERIMENTAL ENDPOINT: Bliss excess
Note: the reply should be a number with no unit written.

Cc1c2c(nn1C)CSCc1cc(n(C)n1)CSc1cc(c3ccccc3c1)OCCCc1c(C(=O)O)n(C)c3c-2c(Cl)ccc13 [AZD5991] + C[C@@H]1COCCN1C2=NC(=NC(=C2)C3(CC3)[S@](=N)(=O)C)C4=C5C=CNC5=NC=C4 [AZD6738] (first compound max 1 µM, 7x7, partner max 10 µM) | 0.0113
NC1(C(=O)N[C@@H](CCO)c2ccc(Cl)cc2)CCN(c2ncnc3[nH]ccc23)CC1 [Capivasertib] + CC(=O)c1c(C)c2cnc(Nc3ccc(N4CCNCC4)cn3)nc2n(C2CCCC2)c1=O [Palbociclib] (first compound max 10 µM, 7x7, partner max 10 µM) | 0.0048
COc1nnc2ccc(N3CCC(c4ccc(OCCN5CCN(C)C(=O)[C@H]5C)cc4)CC3)nn12 [AZD5153] + CC1(C)CCC(CN2CCN(c3ccc(C(=O)NS(=O)(=O)c4ccc(NCC5CCOCC5)c([N+](=O)[O-])c4)c(Oc4cnc5[nH]ccc5c4)c3)CC2)=C(c2ccc(Cl)cc2)C1 [Venetoclax] (first compound max 1 µM, 7x7, partner max 1 µM) | -0.0577

# get_value(readout= Bliss excess, system= BFTC-905 (Bladder Carcinoma)) for N#Cc1cnc(Nc2cc(NC[C@H]3CNCCO3)c(C(F)(F)F)cn2)cn1 [SRA737] + Nc1ccn([C@@H]2O[C@H](CO)[C@@H](O)C2(F)F)c(=O)n1 [Gemcitabine] (first compound max 10 µM, 7x7, partner max 0.3 µM) 0.0034

Item COc1cccc2c1C(=O)c1c(O)c3c(c(O)c1C2=O)C[C@@](O)(C(=O)CO)C[C@@H]3O[C@H]1C[C@H](N)[C@H](O)[C@H](C)O1 [Doxorubicin] + Cc1cc2ncnn2cc1Nc1ncc2c(n1)n(C1CCOCC1)c(=O)n2C [AZD7648] (first compound max 1 µM, 7x7, partner max 10 µM) with BFTC-905 (Bladder Carcinoma) - Bliss excess? 0.131
